log10 of solubility kinetic: recorded values
assay: Kinetic solubility of compound by measuring concentration at pH 7.4 in saturated PBS buffer by UV LCMS/MS using calibration curves. The assay has been performed by Enamine biological services, Bienta Ltd.The protocol is publicly available: dx.doi.org/10.17504/protocols.io.j8nlk8y41l5r/v1; assay type: physicochemical; settings: PBS buffer
// do not treat as linear: log10 of solubility kinetic, unit µM

> print(dat)
                    structure.smiles.string  recorded.value
1  N#Cc1cc2c(cc1NC(=O)c1cc(F)cc3[nH]ncc13)CNC2            2.28
2  Cn1ncc2c(C(=O)Nc3ccc4c(c3)CNC4)cc(Br)cc21            2.59
3  CNC(=O)[C@H](Nc1cc(CN)cc(-c2nn[nH]n2)c1)c1cc(Cl)cc(C2CC2)c1            2.55
4  NCc1cccc(CNC(=O)[C@@H](NC(=O)OCc2ccccc2)c2ccc(OCc3ccccc3)cc2)c1            1.89
5  CNC(=O)[C@H](Nc1ccc2c(c1)CNC2)c1cc(Cl)cc(C2CC2)c1            2.55
6  O=C(Nc1ccc2c(c1)CNC2)c1cc(Cl)cc2cn[nH]c12            2.26

Request: What value of log10 of solubility kinetic has been reported for the following compound? COc1cc(C#N)cc([C@H](Nc2ccc3c(c2)CNC3)C(=O)NCC(F)F)c1
Response: 2.58

Request: Find the recorded log10 of solubility kinetic belonging to O=C(O)c1cc(Cl)ccc1S(=O)(=O)NC1CCN(c2nc(C3CC3)cc(C(F)(F)F)n2)CC1 and report it.
Response: 2.58

Request: Returns the measured log10 of solubility kinetic for the input compound. Input: O=C(Nc1ccc2c(c1)CNC2)c1ccc2[nH]cc(C3CCNCC3)c2c1
Response: 2.58

Request: # lookup: log10 of solubility kinetic of O=C(N[C@H]1[C@H]2CCCCC[C@H]2[C@H]1C(=O)Nc1cccc(C2CCNCC2)c1)OCc1ccccc1
Response: 1.69

Request: Request the reported log10 of solubility kinetic associated with O=C(Nc1cc2c(c(C3=CCS(=O)(=O)CC3)c1)CNC2)c1cc(F)cc2[nH]ncc12
Response: 2.15

Request: For the compound shown here, Cn1cc2c(C(=O)Nc3ccc4c(c3)CNC4)cc(F)cc2n1 , give the reported log10 of solubility kinetic.
Response: 2.49

Request: // query log10 of solubility kinetic value for entry CCCC[C@@H](NC(=O)OC(C)(C)C)C(=O)N[C@@H](C(=O)NCc1ccc(CN)cc1)c1ccc(OCc2ccccc2)cc1
Response: 2.16

Request: # log10 of solubility kinetic lookup, item O=C(Nc1cc(Cl)cc(C(=O)Nc2cccc(C3CCNCC3)c2)c1)OCc1ccccc1
Response: 2.10

Request: Value lookup for log10 of solubility kinetic; key = O=C(O)c1cc(Cl)ccc1NS(=O)(=O)c1ccc(-c2ccccc2Cl)cc1
Response: 2.60

Request: What value of log10 of solubility kinetic has been reported for the following compound? Cc1cc(OCc2ccccc2)ccc1NS(=O)(=O)c1ccc(Cl)cc1C(=O)O
Response: 2.60
